The measured values listed here are drawn from ChEMBL document CHEMBL1134884.

- System: U-251
- MEASUREMENT_PROTOCOL: Tested for in vitro cytotoxic activity against CNS U251 human cancer cell lines
- Type: functional
QUANTITY_KIND: GI50

Solved entries:
| MOLECULE | ASSAYED_SYSTEM | GI50 |
| --- | --- | --- |
| COc1ccc2c(c1)C(=O)c1nc3ccccc3c(=O)n1-2 | U-251 | > 100 µM |
| CC1(O)c2ccccc2-n2c1nc1ccccc1c2=O (stereo not drawn) | U-251 | > 100 µM |

Now take the following molecule into account.
// lookup GI50 for "O=C1c2cc(Cl)ccc2-n2c1nc1ccccc1c2=O"
> 100 µM

====

Assign GI50 to each entry below.
- Test system: M14
- MEASUREMENT_PROTOCOL: Tested for in vitro cytotoxic activity against melanoma M14 human cancer cell lines
- Type: functional

Please state GI50 for every molecule in the list that follows.
1. CN(C)CCCO/N=C1\c2ccccc2-n2c1nc1ccccc1c2=O
2. O=C1c2cc3c(cc2-n2c1nc1ccccc1c2=O)OCO3
3. CCC(=O)Nc1ccc2c(c1)C(=O)c1nc3ccccc3c(=O)n1-2
4. O=c1c2ccccc2nc2n1-c1ccccc1/C2=N\OCCCN1CCCC1
5. COc1ccc2c(c1)C(=O)c1nc3ccccc3c(=O)n1-2
6. O=C(CCl)Nc1ccc2c(c1)C(=O)c1nc3ccccc3c(=O)n1-2

1. 5 µM
2. > 100 µM
3. 10 µM
4. 6 µM
5. > 100 µM
6. 0.9 µM

Consider the following items and state reported GI50 for each.
1. CN(C)CCCO/N=C1\c2cc([N+](=O)[O-])ccc2-n2c1nc1ccccc1c2=O
2. Cc1ccc2c(c1)C(=O)c1nc3ccccc3c(=O)n1-2
3. CCCC(=O)Nc1ccc2c(c1)C(=O)c1nc3ccccc3c(=O)n1-2

1. 0.4 µM
2. 60 µM
3. 18.5 µM

For the 4 molecules below, give their GI50 values.
1. O=c1c2ccccc2nc2n1-c1ccccc1/C2=N\OCCO
2. O=C1c2ccccc2-n2c1nc1ccc([N+](=O)[O-])cc1c2=O
3. Nc1ccc2nc3n(c(=O)c2c1)-c1ccccc1C3=O
4. CN(C)CCO/N=C1\c2cc(Br)ccc2-n2c1nc1ccccc1c2=O

1. 30 µM
2. > 100 µM
3. 60 µM
4. 2 µM
